Just for reference, paper PMC9482650 is where these values come from.

Molecular target: T1, MPDZ_5, O75970
T1 sequence (O75970 695-796, limits assumed, looked up): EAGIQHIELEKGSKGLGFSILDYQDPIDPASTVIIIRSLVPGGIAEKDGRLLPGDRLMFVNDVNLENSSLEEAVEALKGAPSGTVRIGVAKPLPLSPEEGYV
Experiment: holdup assay
Parameters: key: below the threshold = too weak to quantify, mostly under pKd 3.1 to 4
Conditions: plain residues with an end cap or a label only (N-terminal biotin on a linker: ado-ado)
outcome measure: pKd

binder: TETASVCTKV [SLC23A1, Q9UHI7]
obs value: below the threshold
//
binder: FVHPILQSAV [PRKCA, P17252]
obs value: below the threshold
//
binder: QKNKDKEYYV [NRXN3_rs746444206, Q9Y4C0]
obs value: 4.34
//
binder: GFGEERESIL [KIDINS220, Q9ULH0]
obs value: below the threshold
//
binder: EEPEERHTEL [CES2, O00748]
obs value: below the threshold
